# Tested on: Rattus norvegicus
# assayDetails: UV values mean 2-h urine volume (mL) when the compound was administered orally at a dose of 10 mg/kg
# Assay type: functional
# experimentalSetup: route oral
Reported Activity by item:
valueType: Activity (mL)

[
  {
    "compound": "CCCNC1CCCN(C(=O)c2ccc(NC(=O)c3ccccc3C)cc2)c2ccccc21 (stereo not drawn)",
    "number": 5.6
  },
  {
    "compound": "Cc1ccccc1C(=O)Nc1ccc(C(=O)N2CCCC(O)c3ccccc32)cc1 (stereo not drawn)",
    "number": 3.6
  },
  {
    "compound": "CNC1CCCN(C(=O)c2ccc(NC(=O)c3ccccc3C)cc2)c2ccccc21 (stereo not drawn)",
    "number": 8.3
  },
  {
    "compound": "CCNC1CCCN(C(=O)c2ccc(NC(=O)c3ccccc3C)cc2)c2ccccc21 (stereo not drawn)",
    "number": 5.4
  },
  {
    "compound": "Cc1ccccc1C(=O)Nc1ccc(C(=O)N2CCCC(N(C)C)c3ccccc32)cc1 (stereo not drawn) [MOZAVAPTAN]",
    "number": 12.3
  },
  {
    "compound": "CN(C)C1CCCN(C(=O)c2ccc(NC(=O)c3ccccc3Cl)cc2)c2ccccc21 (stereo not drawn)",
    "number": 7
  },
  {
    "compound": "CCCN(C)C1CCCN(C(=O)c2ccc(NC(=O)c3ccccc3C)cc2)c2ccccc21 (stereo not drawn)",
    "number": 8.3
  },
  {
    "compound": "Cc1ccccc1C(=O)Nc1ccc(C(=O)N2CCCC(N(C)CC(N)=O)c3ccccc32)cc1 (stereo not drawn)",
    "number": 6.2
  }
]
